The measurements presented in this section are drawn from patent US20240166765A1.

molecular target: Relipidated TF (Tissue Factor) (UniProt P13726 33-295, limits assumed); test: cell-based or functional assay
PARAMETER MEASURED: % Peak IIa, Ab 50 nM
State the result as a value with its unit after it.

Problem: For the binder shown here, 25A (antibody, human IgG1, V domains shown) VH: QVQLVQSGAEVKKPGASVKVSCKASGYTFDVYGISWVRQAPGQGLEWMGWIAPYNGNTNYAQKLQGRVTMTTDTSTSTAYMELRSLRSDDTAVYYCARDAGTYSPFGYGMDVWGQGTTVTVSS VL: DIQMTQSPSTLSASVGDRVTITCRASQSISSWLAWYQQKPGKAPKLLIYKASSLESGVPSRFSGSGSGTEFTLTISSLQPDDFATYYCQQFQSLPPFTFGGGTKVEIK , give the reported % Peak IIa, Ab 50 nM.
Solution: 95%

Problem: For the binder shown here, 5G9 (humanized TF8-5G9, CNTO 860) (antibody, V domains shown) VH: QVQLVESGGGVVQPGRSLRLSCKASGFNIKDYYMHWVRQAPGKGLEWIGLIDPENGNTIYDPKFQGRFTISADNSKNTLFLQMDSLRPEDTAVYYCARDNSYYFDYWGQGTPVTVSS VL: DIQMTQSPSSLSASVGDRVTITCKASQDIRKYLNWYQQKPGKAPKLLIYYATSLADGVPSRFSGSGSGTDYTFTISSLQPEDIATYYCLQHGESPYTFGQGTKLEIT , give the reported % Peak IIa, Ab 50 nM.
Solution: 8%

Problem: For the binder shown here, TF-011 (antibody, V domains shown) VH: EVQLLESGGGLVQPGGSLRLSCAASGFTFSNYAMSWVRQAPGKGLEWVSSISGSGDYTYYTDSVKGRFTISRDNSKNTLYLQMNSLRAEDTAVYYCARSPWGYYLDSWGQGTLVTVSS VL: DIQMTQSPPSLSASAGDRVTITCRASQGISSRLAWYQQKPEKAPKSLIYAASSLQSGVPSRFSGSGSGTDFTLTISSLQPEDFATYYCQQYNSYPYTFGQGTKLEIK , give the reported % Peak IIa, Ab 50 nM.
Solution: 12%
